assay: Formation of lipid hydroperoxides in antioxidant-treated crackers during storage; details: 153 μmol antioxidant in crackers, 55° C., FIG. 1
measuredAttribute: course of lipid hydroperoxide formation after the lag phase (in words)

1. Cc1cc(C(C)(C)C)c(O)c(C(C)(C)C)c1 [BHT, butylated hydroxytoluene] : slow, steady increase
2. CCCCCCCCCCCCCCCCCCCCCCCc1cc(O)cc(O)c1 [C23:0] : slow, steady increase
3. CCCCCCCCCCCCCCCCCCCCCCCCCc1cc(O)cc(O)c1 [C25:0] : slow, steady increase

###

experiment: Formation of headspace hexanal in antioxidant-treated crackers during storage; settings: 153 μmol antioxidant in crackers, autoxidized at 55° C. in the absence of light, FIG. 2
measuredAttribute: storage day at which headspace hexanal began to increase (end of lag phase) (days)
Answers are plain numbers, in days.

1) CCCCCCCCCCCCCCCCCCCc1cc(O)cc(O)c1 [C19:0] : 50

Please give storage day at which headspace hexanal began to increase (end of lag phase) for each item listed below.
1. CCCCCCCCCCCCCCCCCc1cc(O)cc(O)c1 [C17:0]
2. Cc1c(C)c2c(c(C)c1O)CC[C@@](C)(CCC[C@H](C)CCC[C@H](C)CCCC(C)C)O2 [α-tocopherol]
3. CCCCCCCCCCCCCCCCCCCCCc1cc(O)cc(O)c1 [C21:0]

1: 45; 2: 5; 3: 70
